Measured values drawn from PubChem BioAssay (NCI) for this set.

# Tested on: SK-OV-3 ovarian
# Test protocol: NCI tumour cell line growth inhibition, 48 h
Metric: TGI (µM)
Please give a number only; it is taken to be in µM.

[
  {
    "Compound": "COc1cc(O)c2c(c1)C(=O)C1=C(C2=O)C(O)C[C@@](C)(O)C1 (stereo not given in full)",
    "TGI, µM": 17.1
  }
]

// next item, TGI requested
The reported TGI of the compound COc1cc(C2CC(=O)Nc3c2c(C)nn3-c2nc3ccccc3[nH]2)cc(OC)c1O (stereo not given) was 5.9

====

Listed molecules paired with reported TGI
# Test system: M14 melanoma
# Test protocol: NCI tumour cell line growth inhibition, 48 h
Numeric only. Scale: µM

Form: molecule = O=S(=O)(NCCCNc1cc(-c2cn(-c3ccccc3)nc2-c2cccc(O)c2)ccn1)c1ccc(Br)cc1 ; TGI = 3.78

Per the records, this molecule ( CC/C=C\C[C@H](O)C/C=C1/C(=O)C=C[C@@H]1C/C=C\CCCCO ) has TGI equal to 6.17

TGI for Cc1ccsc1-c1ccc2c(c1)COC2(CCCN(C)C)c1ccc(F)cc1 (stereo not given) is 3.46

TGI in this record for O=[N+]([O-])/C(Cl)=C/C(=C1/Nc2ccccc2O1)[N+](=O)[O-] : 51.1
